- Test Name: NCI Yeast Anticancer Drug Screen. Data for the sgs1 mgt1 strain (AID 161);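 note: 0% = growth of cultures given vehicle only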
- Protocol Conditions: S. cerevisiae sgs1 mgt1 strain, at 50.0 µM, active compounds read high
- Protocol: Growth inhibition of yeast strains with defined genetic alterations is measured as a screen for potential anti-cancer activity. Selected strains with alterations in DNA damage repair or cell cycle control were exposed to compounds and growth inhibition was measured relative to vehicle treated controls. The strain used in this assay is sgs1 mgt1
This is part of a sample that, as a whole, favours compounds with a hit. Of some 79,000 tested, about 15% had one in any assay.
Measured Property: growth inhibition (%)

Compound: COc1ccc(C2OC3=C(Nc4ccc([N+](=O)[O-])cc4N3)C2=O)cc1 (centres undefined)
Val: -16.8
//
Compound: ClCCOCc1ccc(Cl)cc1Cl
Val: 8.4
//
Compound: CC#CC#C/C=C1/C=CC2(CC=CO2)O1 (centres undefined)
Val: 9.85
//
Compound: C#CCN(CCCC)CCCC
Val: -5.55
//
Compound: Cc1ccc(N=C2N=C(N3CC(C)OC(C)C3)c3ccccc32)cc1 (centres undefined)
Val: -15.6
//
Compound: CCCCCCn1cnc2c(=S)nc[nH]c21
Val: 10.8
//
Compound: CSCSCC(CO)NC(=O)/C=C\c1ccccc1 (centres undefined)
Val: 7.15
//
Compound: Nc1cc(=O)n(C2OC(CO)C(O)C2O)cn1 (centres undefined)
Val: -0.3
//
Compound: ONc1cnc2ccccc2n1
Val: -3.5
//
Compound: Nc1ccc(S(=O)(=O)O)cc1[N+](=O)[O-]
Val: -3.75
//
Compound: COCn1c(C)c(C)c2c(=O)oc(=O)[nH]c21
Val: -30.6
//
Compound: CCN(CC)CCNc1cccc(Cl)c1
Val: 34.4
//
Compound: CS(=O)(=O)Cc1cc(-c2ccccc2)no1
Val: 8.7
//
Compound: CCCNCc1cccc2ccnc(C)c12
Val: 0.45
